Cited source for all entries: patent US20260092093A1

tgt: T1, recombinant hIL-18Rα extracellular domain (human, UniProt Q13478 22-329, biotin label (selection) or fluorescent probe (single-clone FACS), sites not given)
T1 construct: extracellular domain; also called hIL-18Rα ECD; hIL-18Rα-ECD
T1 sequence (looked up): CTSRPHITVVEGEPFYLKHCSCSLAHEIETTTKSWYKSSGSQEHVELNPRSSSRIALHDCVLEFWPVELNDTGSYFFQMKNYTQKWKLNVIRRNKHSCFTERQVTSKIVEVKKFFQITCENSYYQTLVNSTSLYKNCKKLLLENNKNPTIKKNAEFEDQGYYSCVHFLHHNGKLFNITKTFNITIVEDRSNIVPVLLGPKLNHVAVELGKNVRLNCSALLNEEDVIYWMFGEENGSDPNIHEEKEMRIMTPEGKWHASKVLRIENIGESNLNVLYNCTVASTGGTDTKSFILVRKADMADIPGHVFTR
experiment: single-clone FACS, yeast display, 10 nM labelled hIL-18Rα ECD
parameter: % of fluorescence positive cells (%)
Answer with a number only, understood to be in %.

binder | % of fluorescence positive cells [%]
SEQ ID NO 52 (ligand) YFWKLKSKLSVIRNLNDQVLFIDQGNRPLFEDMTDSDCRDNAPRTIFIISMYKPSSHRGMAVTISVKCEKISTLSCENKIISFKEMNPPDVIKDTKSDIIFFQLSVPGHDNKMQFESSSYEGYFLACEKERDLFKLILKKEDELGDRSIMFTVQNED | 83
SEQ ID NO 51 (ligand) YFPKLRSKLSVIRNLNDQVLFIDQGNRPLFEDMTDSDCRDNAPRTIFIISMYKWSAVRGMAVTISVKCEKISTLSCENKIISFKEMNPPDSIKDTKSDIIFFQSSVPGHDNKMQFESSSYEGYFLACEKERDLFKLILKKEDELGDRSIMFTVQNED | 83.1

Sample SEQ ID NO 75 (ligand) YFPKLGSKLSVIRNLNDQVLFIDQGNRPLFEDMTDSDCRDNAPRTIFIISMYKHSSRRGMAVTISVKCEKISTLSCENKIISFKEMNPPDVIKDTKSDIIFFQNSVPGHDNKMQFESSSYEGYFLACEKERDLFKLILKKEDELGDRSIMFTVQNED — what was its % of fluorescence positive cells?
30
